Answer each item with its documented inhibition of SARS-CoV-2 cytopathic effect.
- Test system: Vero E6 infected with SARS-CoV-2
- procedure.details: inhibition of SARS-CoV-2 cytopathic effect; higher = more antiviral protection, active = above 15
- condition: 100 nM; 48 h
Give bare numbers, in %.

[[record]]
compound = "Nc1ccc(S(=O)(=O)Nc2ccnn2-c2ccccc2)cc1"
readout_number = 1.62


Below are 4 compounds. Give each one its inhibition of SARS-CoV-2 cytopathic effect.
1. Cn1c(=O)c2c(ncn2C)n(C)c1=O
2. CCC(=O)N1CCN(c2ccc(-n3c(=O)ccc4cnc5ccc(-c6cnc7ccccc7c6)cc5c43)cc2C(F)(F)F)CC1
3. CC(C)c1nc(CN(C)C(=O)N[C@H](C(=O)N[C@@H](Cc2ccccc2)C[C@H](O)[C@H](Cc2ccccc2)NC(=O)OCc2cncs2)C(C)C)cs1 [Ritonavir]
4. O=S(=O)(F)Cc1ccccc1 [phenylmethylsulfonyl-fluoride]

1: -0.63; 2: 0.88; 3: 0.46; 4: 2.93

----------
- System: Vero E6 infected with SARS-CoV-2
- procedure.details: SARS-CoV-2 infection rate relative to infected DMSO; higher = more infection, active = 60 or less
- condition: 24 h
Answer each item with its documented SARS-CoV-2 infection rate.
Numbers only, in %.

[[record]]
molecule = "O=C1NCCN1CCN1CCC(c2cn(-c3ccc(F)cc3)c3ccc(Cl)cc23)CC1 [sertindole] (0.833333 µM)"
uom = "%"
readout_number = 106


Below are 3 molecules. Give each one its SARS-CoV-2 infection rate.
1. CC(=N)NCc1cccc(CN)c1 (10 µM)
2. CCOC(=O)c1cncn1[C@H](C)c1ccccc1 [etomidate] (10 µM)
3. O=C(O)CC[C@H]1CC[C@@](c2cc(F)ccc2F)(S(=O)(=O)c2ccc(Cl)cc2)CC1 (10 µM)

[107, 110, 110]

Below are 5 molecules. Give each one its SARS-CoV-2 infection rate.
1. NC(=O)N1c2ccccc2CC(=O)c2ccccc21 [oxcarbazepine] (10 µM)
2. NC(=O)C[C@H](N)C(=O)O [L-asparagine] (10 µM)
3. C=CC1=C(C)c2cc3[nH]c(cc4nc(cc5[nH]c(cc1n2)c(C)c5CCC(=O)O)C(CCC(=O)O)=C4C)c(C)c3C=C [protoporphyrin-IX] (10 µM)
4. COc1c2ccoc2cc2oc(=O)ccc12 [bergapten] (10 µM)
5. OC[C@H]1O[C@H](O[C@]2(CCl)O[C@H](CCl)[C@@H](O)[C@@H]2O)[C@H](O)[C@@H](O)[C@H]1Cl [sucralose] (10 µM)

108
94
115
108
97

----------
- Test system: Vero E6 infected with SARS-CoV-2
- procedure.details: inhibition of SARS-CoV-2 cytopathic effect; higher = more antiviral protection, active = above 15
- condition: 833.33 nM; 48 h
Answer each item with its documented inhibition of SARS-CoV-2 cytopathic effect.

Please review the entries below; each comes with its answer.
[[record]]
compound = "O=[N+]([O-])/C=C/c1ccc2c(c1)OCO2 [3,4-methylenedioxy-beta-nitrostyrene]"
subject_of_test = "Vero E6 infected with SARS-CoV-2"
result = "-3.16% (inactive)"

[[record]]
compound = "CC(=O)Nc1cccc(Nc2ncnc(N3CCC(OCc4ccc(OC(F)(F)F)cc4)CC3)n2)c1C"
subject_of_test = "Vero E6 infected with SARS-CoV-2"
result = "-2.26% (inactive)"

[[record]]
compound = "CONC(=N)c1ccc(-c2ccc(-c3ccc(C(=N)NOC)cc3)o2)cc1 [pafuramidine]"
subject_of_test = "Vero E6 infected with SARS-CoV-2"
result = "0.72% (inactive)"

[[record]]
compound = "CCCCCS(=O)(=O)CCCCCCCCCCn1c(-c2ccc(O)cc2)c(C)c2cc(O)ccc21"
subject_of_test = "Vero E6 infected with SARS-CoV-2"
result = "-1.6% (inactive)"


Below are 4 compounds. Give each one its inhibition of SARS-CoV-2 cytopathic effect.
1. CCCn1c(=O)[nH]c2nc(-c3ccc(S(=O)(=O)N4CCN(c5ccc(Cl)cc5)CC4)cc3)[nH]c2c1=O
2. Cc1cc(C)n(-c2cccc([C@H](CC(=O)O)CN3CC[C@@H](CCc4ccc5c(n4)NCCC5)C3)c2)n1 [integrin-antagonist-1]
3. C1=N/C2=N/c3ccc(OCCN4CCCC4)c(c3)COC/C=C/COCc3cccc(c3)C(=C1)N2 [pacritinib]
4. CSc1ccc(C(=O)/C=C/c2cc(C)c(OC(C)(C)C(=O)O)c(C)c2)cc1 [elafibranor]

1. 1.71% (inactive)
2. 0.99% (inactive)
3. 0.27% (inactive)
4. 2.15% (inactive)
